B1: Azoarcus group I ribozyme (parent)
chain: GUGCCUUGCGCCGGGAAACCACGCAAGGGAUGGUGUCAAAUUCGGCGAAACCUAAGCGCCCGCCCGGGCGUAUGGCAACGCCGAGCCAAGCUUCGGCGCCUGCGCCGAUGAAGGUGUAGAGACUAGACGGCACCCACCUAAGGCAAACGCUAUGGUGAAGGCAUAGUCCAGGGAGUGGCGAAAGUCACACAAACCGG

# Variants of: B1
# assay.notes: reverse-splicing fitness (ratio to wild type); higher = more active; in vitro selection; Mg2+ level not given
Recorded reverse-splicing fitness, one value per entry.
// no unit string in output, number only

Consider the following illustrative entries.
// query Returns the measured reverse-splicing fitness for the input variant. Input: A111C A120G C150U C169G
// result 0.112

// query Please do the same for A111C A120U A145U C150A C169G U176G as well.
// result 0.00199

// query Cool, now C82G A111C A120G A145G C150A C169A
// result 0.0104

// query What would you report for A111U A145U C150U C169U U176C ?
// result 0.0268

// query Try C82G A111C A145G C150U C169G U176A next.
// result 0.0107

// query Could you do the same for A111C A120G A145U C150G , please?
// result 0.0193

// query Also C82U A111G A120U C169G U176G ?
// result 0.00183

// query Then C82A A111G A120U A145C C150U C169A U176C ?
// result 0.00215

// query Then C82G A111U A120U A145U C150G C169G U176G ?
// result 0.0021

// query Record: C82G A145G C150U C169G U176G
// result 0.00499

Further cases:
// query Which reverse-splicing fitness is listed for C82G A111C A120C A145G C150A C169U U176G ?
// result 0.00795

// query Queued: A120G A145C C169A U176A
// result 0.0967

// query Moving on to C82U A111U A120U A145G C150U C169U U176A
// result 0.00396

// query Next: A111U A120U A145G C169G U176G
// result 0.00167

// query Moving on to the next variant: C82A A120C A145C C150G C169G U176C
// result 0.00971

// query Repeat for the following variant: C82G A111G A120G C150U C169A U176G
// result 0.00607

// query Can you handle C82G A111G A120C A145U C169G U176A next?
// result 0.0157

// query Same thing, different variant: C82G A111C A145C C150U C169U
// result 0.0113

// query Another variant: C82G A111C A120G A145U C150A C169A U176C
// result 0.0105

// query Param item: A111C A145C C150G C169G U176G
// result 0.0057

// query What do you get for C82G A111U A120G C150A C169A ?
// result 0.0117

// query A111G A120U C169A U176A , same question.
// result 0.0033

// query Also need C82U A111U A120U A145C C150A C169A U176A , thanks.
// result 0.00203

// query Another: C82A A111G A120C A145C C150U C169A
// result 0.00838
